Sourced from PubChem BioAssay AID1745848

ASSAY NOTES: Confirmatory qHTS for Inhibitors of ATXN expression; also: nearly all actives have a fitted effect of over 65% in size; also: potency is read from the fitted curve at half-maximal effect
ASSAY CONDITIONS: ATXN2-luciferase reporter cells, luminescence, 24 h; series mostly up to 11.5 µM
Hit rate of the full screen: of about 2,100 compounds, about 940 (45%) were called active. Inconclusive results (about 48%) are left out. So high a share suggests a set chosen from earlier hits. This is one part of the list.
OBSERVATION TYPE: Potency

Sample answers from the record:
> print(dat)
                                   compound  observation.type       assay.value
1  CCCCC(=O)NC(c1ccc(N(C)C)cc1)c1ccc2cccnc2c1O (stereo unspecified)           Potency  1.26 µM (active)
2  O=C(N/N=C/c1ccc([N+](=O)[O-])o1)c1ccc2c(c1)OCO2           Potency  14.1 µM (active)
3  C=CCn1c(COc2ccccc2)nnc1SC(C)C(=O)N/N=C/c1cc(Cl)ccc1O (stereo unspecified)           Potency  3.98 µM (active)
4    Cc1cc(C)nc(/N=C(\N)Nc2ccc(C(C)C)cc2)n1           Potency  2.24 µM (active)
5  Cn1cc(C(=O)c2ccc(Cl)cc2Cl)cc1C(=O)N/N=C(\N)COc1ccc(Cl)cc1           Potency  11.2 µM (active)

For this compound ( `Cc1csc(NC(=O)COCC(=O)O)c1-c1nc2ccccc2s1` ), measured Potency is 15.8 µM (active)

For this compound ( `C/C(=N\Nc1cc(N2CCOCC2)nc(C)n1)c1cccc([N+](=O)[O-])c1` ), measured Potency is inactive

For this compound ( `OC[C@@H]1CN(Cc2ccc(-c3ccccc3)cc2)C[C@H](n2cnc3c(Nc4ccccc4)ncnc32)O1` ), measured Potency is 15.8 µM (active)
